TARGET_UNDER_TEST: T1, Recombinant Human DLL4 (delta-like protein 4) (human, UniProt Q9NR61 27-524)
T1 construct: Bought recombinant human DLL4 coated on the ELISA plate; also called rHuman DLL4
PROTOCOL_SUMMARY: ELISA, DLL4 coated on plate, Fab at 100 nM (2-fold dilution series), absorbance at 450 nm
Documented ELISA signal across a set of binders
Lab note: write the figure by itself, no unit.

Below: 4 binders and their reported ELISA signal.
Fab VH5-51_IGHD5-18*01>3_IGHJ4*01 G100K/G104T G24T/S28R/G35V (KT TRV) & V3-4_IGLJ1*01 V91L/S96P (LP) (Fab, V domains shown, Fab; Expressed in E. coli with CH1 (plasmid A, His6 and Flag tags) and lambda CL (plasmid E); also called H:KT TRV & L:LP) VH: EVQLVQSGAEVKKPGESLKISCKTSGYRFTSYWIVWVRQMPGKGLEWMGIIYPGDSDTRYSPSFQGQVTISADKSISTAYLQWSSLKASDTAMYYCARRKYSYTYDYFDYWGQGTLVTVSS VL: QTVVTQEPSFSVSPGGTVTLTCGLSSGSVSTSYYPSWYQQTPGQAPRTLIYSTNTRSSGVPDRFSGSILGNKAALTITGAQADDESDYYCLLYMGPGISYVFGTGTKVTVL : 1
Fab VH5-51_IGHD5-18*01>3_IGHJ4*01 G104T & V3-4_IGLJ1*01 (wildtype) (Fab, V domains shown, Fab; Expressed in E. coli with CH1 (plasmid A, His6 and Flag tags) and lambda CL (plasmid E); also called G104T & Wildtype) VH: EVQLVQSGAEVKKPGESLKISCKGSGYSFTSYWIGWVRQMPGKGLEWMGIIYPGDSDTRYSPSFQGQVTISADKSISTAYLQWSSLKASDTAMYYCARRGYSYTYDYFDYWGQGTLVTVSS VL: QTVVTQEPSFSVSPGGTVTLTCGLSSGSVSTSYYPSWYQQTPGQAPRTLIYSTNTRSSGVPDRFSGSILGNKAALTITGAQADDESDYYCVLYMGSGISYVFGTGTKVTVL : 0.17
Fab VH5-51_IGHD5-18*01>3_IGHJ4*01 G100K/G104T G24A/S28R/G35V (KT ARV) & V3-4_IGLJ1*01 V91L/S96P S52P (Fab, V domains shown, Fab; Expressed in E. coli with CH1 (plasmid A, His6 and Flag tags) and lambda CL (plasmid E); also called G100K/G104T G24A/S28R/G35V & V91L/S96P S52P) VH: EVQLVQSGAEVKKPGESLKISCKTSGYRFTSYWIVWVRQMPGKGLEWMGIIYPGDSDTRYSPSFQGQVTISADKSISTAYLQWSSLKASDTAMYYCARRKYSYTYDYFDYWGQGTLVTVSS VL: QTVVTQEPSFSVSPGGTVTLTCGLSSGSVSTSYYPSWYQQTPGQAPRTLIYPTNTRSSGVPDRFSGSILGNKAALTITGAQADDESDYYCLLYMGPGISYVFGTGTKVTVL : 1
Fab VH5-51_IGHD5-18*01>3_IGHJ4*01 G100K/G104T S28R (KT S28R) & V3-4_IGLJ1*01 (wildtype) (Fab, V domains shown, Fab; Expressed in E. coli with CH1 (plasmid A, His6 and Flag tags) and lambda CL (plasmid E); also called H:KT S28R & L:wt) VH: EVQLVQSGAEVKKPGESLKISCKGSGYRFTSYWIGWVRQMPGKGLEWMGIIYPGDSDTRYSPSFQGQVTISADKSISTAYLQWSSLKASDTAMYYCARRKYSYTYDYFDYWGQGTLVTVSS VL: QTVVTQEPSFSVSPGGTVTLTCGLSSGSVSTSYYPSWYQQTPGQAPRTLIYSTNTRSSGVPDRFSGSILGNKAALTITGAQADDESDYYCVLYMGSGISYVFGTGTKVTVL : 0.26

Given the binder Fab VH5-51_IGHD5-18*01>3_IGHJ4*01 G100K/G104T (KT) & V3-4_IGLJ1*01 (wildtype) (Fab, V domains shown, Fab; Expressed in E. coli with CH1 (plasmid A, His6 and Flag tags) and lambda CL (plasmid E); also called H:KT & L:wt; KT double mutant) VH: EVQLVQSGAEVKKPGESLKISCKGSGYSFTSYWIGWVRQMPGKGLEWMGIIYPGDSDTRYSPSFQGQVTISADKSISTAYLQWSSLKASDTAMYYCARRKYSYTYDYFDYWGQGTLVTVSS VL: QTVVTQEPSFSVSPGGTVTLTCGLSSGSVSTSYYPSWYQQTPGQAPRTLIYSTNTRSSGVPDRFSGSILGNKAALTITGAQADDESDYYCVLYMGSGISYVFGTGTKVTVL , what is its reported ELISA signal? 0.18
